Target: human V1a receptor (Homo sapiens)
Sequence (P37288 whole entry): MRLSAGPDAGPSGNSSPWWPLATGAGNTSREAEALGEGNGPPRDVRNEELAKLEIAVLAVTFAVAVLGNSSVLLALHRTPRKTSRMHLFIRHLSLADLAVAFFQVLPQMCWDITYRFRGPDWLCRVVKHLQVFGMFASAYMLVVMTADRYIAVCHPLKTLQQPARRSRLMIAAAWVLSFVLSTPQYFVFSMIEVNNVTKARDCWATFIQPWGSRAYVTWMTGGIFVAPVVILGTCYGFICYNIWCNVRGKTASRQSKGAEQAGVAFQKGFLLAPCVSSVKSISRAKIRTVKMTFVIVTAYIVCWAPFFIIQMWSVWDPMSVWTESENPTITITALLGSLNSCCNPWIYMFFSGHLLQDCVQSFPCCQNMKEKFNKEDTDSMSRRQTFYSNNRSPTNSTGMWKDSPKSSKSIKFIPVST
Experiment: Cellular in vitro assay for determining vasopressin receptor activity, V1a receptor cell line (CHO, aequorin luminescence)
Settings: CHO cell line transfected with human V1a receptor; [Arg]-vasopressin at EC50 concentration; read-out: IC50 hV1a
Endpoint name: pIC50
For clarity, pIC50 is expressed as the negative log10 of concentration in mol/L.

1) CN(CC1CC1)C(=O)c1ccccc1-n1cnc(Cn2nc(-c3ccc(Cl)cc3)n(C[C@H](O)C(F)(F)F)c2=O)n1 [Example 289] ... 9.08
2) Cc1ccn(CC(=O)Nc2ncccc2-n2cnc(Cn3nc(-c4ccc(Cl)cc4)n(C[C@H](O)C(F)(F)F)c3=O)n2)n1 [Example 127] ... 6.80

Now for another entry.
QUERY: Value lookup for pIC50; key = O=C(c1ccccc1-n1cnc(Cn2nc(-c3ccc(Cl)cc3)n(C[C@H](O)C(F)(F)F)c2=O)n1)N1CCCO1 [Example 285]
RESULT: 8.72

Origin of the recorded values: patent US11173151B2
